TEST_SYSTEM: Anti-CD28 scFv (VH - linker 1 - VL) (biotinylated (site not stated))
Sequence (scFv, as listed by the source): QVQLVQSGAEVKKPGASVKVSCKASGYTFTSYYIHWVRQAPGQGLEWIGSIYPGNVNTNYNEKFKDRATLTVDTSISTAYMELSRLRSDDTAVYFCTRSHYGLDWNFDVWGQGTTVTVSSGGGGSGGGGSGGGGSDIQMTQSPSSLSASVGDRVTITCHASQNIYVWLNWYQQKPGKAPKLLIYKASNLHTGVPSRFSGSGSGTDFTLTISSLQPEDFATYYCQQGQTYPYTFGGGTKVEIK
PROCEDURE_TEXT: phage binding ELISA on captured anti-CD28 scFv; wells pre-incubated with soluble CD28 protein (competitor)
Where no end group is shown, it is not given here.
QUANTITY_MEASURED: CD28 scFv signal in presence of CD28
Just the number, please, no unit after it.

Worked examples follow.
{"BINDER": "MAWCPVYLWHECFN (peptide, not shown: large carriers) [Phage-47 clonal phage peptide]", "CD28 scFv signal in presence of CD28": 0.351}
{"BINDER": "MNWCPRDMWYQCFN (peptide, not shown: large carriers, cysteine pairing not given here; also: displayed on phage by fusion to pIII, linker and pIII sequence not given here) [Phage-54 clonal phage peptide]", "CD28 scFv signal in presence of CD28": 0.177}
{"BINDER": "MDWCPMDLWDYCFN (peptide, not shown: large carriers, cysteine pairing not given here; also: displayed on phage by fusion to pIII, linker and pIII sequence not given here) [Phage-51 clonal phage peptide]", "CD28 scFv signal in presence of CD28": 0.107}

Proceed to the following item.
Given the binder MDWCPINLWDECFS (peptide, not shown: large carriers, cysteine pairing not given here; also: displayed on phage by fusion to pIII, linker and pIII sequence not given here) [Phage-52 clonal phage peptide] , write its reported CD28 scFv signal in presence of CD28.
0.096
